biological target: hNav1.5 sodium channels (Homo sapiens (Human), UniProt Q14524); assay: Cloned hNav1.5 sodium channels expressed in CHO cells, QPatch HT automated patch clamp; conditions: 0.01-100 uM, read-out: NaV1.5 (Phasic) IC50
Sequence (Q14524 whole entry): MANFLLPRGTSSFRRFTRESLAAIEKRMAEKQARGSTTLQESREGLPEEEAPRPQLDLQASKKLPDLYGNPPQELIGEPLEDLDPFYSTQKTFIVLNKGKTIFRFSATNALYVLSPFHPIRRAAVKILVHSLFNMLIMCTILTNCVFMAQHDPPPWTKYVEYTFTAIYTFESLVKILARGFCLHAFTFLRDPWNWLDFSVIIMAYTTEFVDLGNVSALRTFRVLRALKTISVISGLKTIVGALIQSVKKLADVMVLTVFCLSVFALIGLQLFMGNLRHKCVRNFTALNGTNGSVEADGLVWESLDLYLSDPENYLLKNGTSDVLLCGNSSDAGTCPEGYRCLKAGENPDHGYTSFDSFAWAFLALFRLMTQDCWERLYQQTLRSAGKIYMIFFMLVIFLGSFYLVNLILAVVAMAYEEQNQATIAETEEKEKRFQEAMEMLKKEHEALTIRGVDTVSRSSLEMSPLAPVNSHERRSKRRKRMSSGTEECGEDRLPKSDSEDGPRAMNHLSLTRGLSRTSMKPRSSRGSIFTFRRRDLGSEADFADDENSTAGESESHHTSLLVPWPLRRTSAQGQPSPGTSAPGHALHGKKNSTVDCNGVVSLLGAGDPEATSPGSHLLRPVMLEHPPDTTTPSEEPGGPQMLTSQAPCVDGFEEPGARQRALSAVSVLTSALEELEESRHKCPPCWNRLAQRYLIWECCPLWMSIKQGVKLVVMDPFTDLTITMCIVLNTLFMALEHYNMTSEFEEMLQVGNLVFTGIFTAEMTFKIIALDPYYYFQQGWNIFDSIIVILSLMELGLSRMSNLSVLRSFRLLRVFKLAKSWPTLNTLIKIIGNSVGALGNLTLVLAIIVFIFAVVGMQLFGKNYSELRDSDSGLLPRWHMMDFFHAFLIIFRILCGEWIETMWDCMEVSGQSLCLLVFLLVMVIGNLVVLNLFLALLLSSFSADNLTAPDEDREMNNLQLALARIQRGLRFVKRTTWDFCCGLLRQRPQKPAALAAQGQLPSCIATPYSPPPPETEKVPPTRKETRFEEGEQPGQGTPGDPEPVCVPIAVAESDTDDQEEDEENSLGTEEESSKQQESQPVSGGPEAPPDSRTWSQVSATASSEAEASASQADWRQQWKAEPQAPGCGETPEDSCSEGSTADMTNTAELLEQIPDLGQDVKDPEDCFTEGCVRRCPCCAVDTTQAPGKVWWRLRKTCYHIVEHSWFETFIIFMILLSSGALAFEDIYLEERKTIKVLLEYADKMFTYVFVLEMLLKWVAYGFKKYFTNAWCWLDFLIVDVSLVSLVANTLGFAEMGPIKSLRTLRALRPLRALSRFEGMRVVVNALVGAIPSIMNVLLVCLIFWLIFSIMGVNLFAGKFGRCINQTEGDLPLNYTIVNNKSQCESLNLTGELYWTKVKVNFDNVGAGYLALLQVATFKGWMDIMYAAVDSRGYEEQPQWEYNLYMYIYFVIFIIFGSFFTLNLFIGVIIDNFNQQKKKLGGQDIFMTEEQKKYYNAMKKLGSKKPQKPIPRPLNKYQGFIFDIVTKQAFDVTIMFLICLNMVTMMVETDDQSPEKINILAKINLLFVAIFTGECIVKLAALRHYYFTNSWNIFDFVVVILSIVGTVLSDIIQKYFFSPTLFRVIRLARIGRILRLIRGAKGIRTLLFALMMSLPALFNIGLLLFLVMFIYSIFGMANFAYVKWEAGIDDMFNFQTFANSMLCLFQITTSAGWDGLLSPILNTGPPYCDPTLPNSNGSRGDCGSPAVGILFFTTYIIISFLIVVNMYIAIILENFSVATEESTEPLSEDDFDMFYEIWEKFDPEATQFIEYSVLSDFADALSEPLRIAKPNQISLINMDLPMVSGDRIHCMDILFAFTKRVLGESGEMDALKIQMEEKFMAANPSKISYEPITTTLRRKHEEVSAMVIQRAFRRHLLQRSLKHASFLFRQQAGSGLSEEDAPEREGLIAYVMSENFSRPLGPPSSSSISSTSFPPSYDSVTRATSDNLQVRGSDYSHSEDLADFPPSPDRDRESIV
readout.name: IC50 (µM)

[
  {
    "mol": "C=C(F)C(=O)N1CC(c2nn(-c3ccc(OC(F)(F)F)cc3)c3nccc(CO)c23)C1",
    "readout.name": "IC50",
    "reported": 42.1
  }
]

---

biological target: TEAD4 (Homo sapiens (Human)); experiment: TR-FRET lipid pocket probe competition assay (Lipid HTRF), TEAD4; type: binding; conditions: 4 hours pre-incubation; read-out: Lipid HTRF TEAD4 IC50;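 further: His-tagged TEAD4 with biotinylated lipid-pocket probe, read by Europium anti-His and XL665 streptavidin, where probe displacement lowers the TR-FRET signal, IC50 from a four-parameter fit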
Sequence (Q15561 whole entry, species assumed): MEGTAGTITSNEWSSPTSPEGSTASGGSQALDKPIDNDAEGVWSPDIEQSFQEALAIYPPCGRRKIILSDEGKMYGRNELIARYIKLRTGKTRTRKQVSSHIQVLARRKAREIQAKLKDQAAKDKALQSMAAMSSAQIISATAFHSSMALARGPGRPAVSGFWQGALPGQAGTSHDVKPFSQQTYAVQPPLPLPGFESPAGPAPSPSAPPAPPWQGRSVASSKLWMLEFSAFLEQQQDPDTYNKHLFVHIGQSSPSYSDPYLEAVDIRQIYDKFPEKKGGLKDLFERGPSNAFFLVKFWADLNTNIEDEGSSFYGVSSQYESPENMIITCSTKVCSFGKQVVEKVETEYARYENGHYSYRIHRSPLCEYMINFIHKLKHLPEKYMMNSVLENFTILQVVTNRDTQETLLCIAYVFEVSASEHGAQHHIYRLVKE
pIC50: −log10 of the molar value.
readout.name: pIC50

[
  {
    "mol": "C=CC(=O)NCc1nn(-c2ccc(OC(F)(F)F)cc2)c2nccc([C@H](O)COC(C)=O)c12",
    "reported": 7.55
  },
  {
    "mol": "C/C=C(\\C)C(=O)N1CC(c2nn(-c3ccc(OC(F)(F)F)cc3)c3nccc(CO)c23)C1",
    "reported": 6.24
  },
  {
    "mol": "C/C=C/C(=O)N1CC(c2nn(-c3ccc(OC(F)(F)F)cc3)c3nccc(CO)c23)C1",
    "reported": 7.26
  },
  {
    "mol": "C=C(F)C(=O)N1CC(c2nn(-c3ccc(OC(F)(F)F)cc3F)c3nccc(CO)c23)C1",
    "reported": 7.51
  },
  {
    "mol": "C=CC(=O)N(C)Cc1nn(-c2ccc(OC(F)(F)F)cc2)c2nccc(CO)c12",
    "reported": 7.92
  },
  {
    "mol": "C=C(F)C(=O)N1CC(c2nn(-c3ccc(OC(F)(F)F)cc3)c3nccc(-c4cnn(CC(N)=O)c4)c23)C1",
    "reported": 7.43
  },
  {
    "mol": "N#Cc1ccnc2c1c(C1CN(C(=O)/C=C/CO)C1)nn2-c1ccc(OC(F)(F)F)cc1",
    "reported": 8.17
  }
]

---

biological target: TEAD2 (Homo sapiens (Human));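 further: TR-FRET competition assay with His-tagged TEAD protein and a biotinylated lipid pocket probe, compound pre-incubated 30 min or 4 h at room temperature, displacement lowers signal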
Sequence (Q15562 whole entry, species assumed): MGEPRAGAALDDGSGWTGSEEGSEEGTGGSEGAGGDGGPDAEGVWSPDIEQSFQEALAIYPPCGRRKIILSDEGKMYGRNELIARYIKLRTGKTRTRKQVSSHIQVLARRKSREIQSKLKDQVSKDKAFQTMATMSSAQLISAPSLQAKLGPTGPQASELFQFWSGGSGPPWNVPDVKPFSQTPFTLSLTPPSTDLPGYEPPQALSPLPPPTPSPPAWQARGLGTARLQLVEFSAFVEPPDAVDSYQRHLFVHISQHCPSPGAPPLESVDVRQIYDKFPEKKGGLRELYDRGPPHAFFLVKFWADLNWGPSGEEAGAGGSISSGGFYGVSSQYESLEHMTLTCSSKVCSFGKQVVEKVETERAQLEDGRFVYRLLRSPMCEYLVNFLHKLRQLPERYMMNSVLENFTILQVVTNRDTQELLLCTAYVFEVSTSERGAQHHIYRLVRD
pIC50: −log10 of the molar value.
Listed next: entries and their corresponding pIC50.

[
  {
    "molecule": "C=C(F)C(=O)N1CC(c2nn(-c3ccc(OC(F)(F)F)cc3)c3nccc(-c4cnn(CCS(C)(=O)=O)c4)c23)C1",
    "pIC50": 6.19
  },
  {
    "molecule": "C=CC(=O)NCc1nn(-c2ccc(S(F)(F)(F)(F)F)cc2)c2ccccc12",
    "pIC50": 6.60
  },
  {
    "molecule": "C=CC(=O)N1CC(c2nn(-c3ccc(OC(F)(F)F)cc3)c3nccc([C@H](O)CO)c23)C1",
    "pIC50": 8.19
  },
  {
    "molecule": "C/C=C/S(=O)(=O)N1CC(c2nn(-c3ccc(OC(F)(F)F)cc3)c3nccc([C@@H](O)CO)c23)C1",
    "pIC50": 8.00
  },
  {
    "molecule": "C=CC(=O)NCc1nn(-c2ccc(OC(F)(F)F)cc2)c2nccc(N3CCC[C@@H](O)C3)c12 (stereo in doubt)",
    "pIC50": 7.00
  },
  {
    "molecule": "C=CC(=O)NCc1nn(-c2ccc(OC(F)(F)F)cc2)c2nccc(N3CC(C#N)C3)c12",
    "pIC50": 7.35
  },
  {
    "molecule": "O=C(N1CC(c2nn(-c3ccc(OC(F)(F)F)cc3)c3nccc(CO)c23)C1)C12CC1C2 (stereo not shown)",
    "pIC50": 6.54
  },
  {
    "molecule": "C=CC(=O)NCc1nn(-c2ccc(OC(F)(F)F)cc2)c2nccc(-c3cnn(CCOC)c3)c12",
    "pIC50": 6.68
  },
  {
    "molecule": "C=C(F)C(=O)N1CC(c2nn(-c3ccc(OC(F)(F)F)cc3)c3nccc(N4CC(F)(C(N)=O)C4)c23)C1",
    "pIC50": 7.43
  },
  {
    "molecule": "C=CC(=O)NCc1nn(-c2ccc(OC(F)(F)F)cc2)c2nccc(N3CC(OC)C3)c12",
    "pIC50": 7.01
  },
  {
    "molecule": "C=C(C)C(=O)N1CC(c2nn(-c3ccc(OC(F)(F)F)cc3)c3nccc(CO)c23)C1",
    "pIC50": 6.60
  },
  {
    "molecule": "O=C(C1=CCCC1)N1CC(c2nn(-c3ccc(OC(F)(F)F)cc3)c3nccc(CO)c23)C1",
    "pIC50": 5.92
  },
  {
    "molecule": "C=CC(=O)NCc1nn(-c2ccc(OC(F)(F)F)cc2)c2nccc(N3CC([C@H](C)O)C3)c12 (stereo in doubt)",
    "pIC50": 6.54
  },
  {
    "molecule": "C=CC(=O)NCc1nn(-c2ccc(S(F)(F)(F)(F)F)cc2)c2cccnc12",
    "pIC50": 5.55
  },
  {
    "molecule": "C=CC(=O)NCc1nn(-c2ccc(OC(F)(F)F)cc2)c2nccc(N3CC([C@@H](C)O)C3)c12 (stereo in doubt)",
    "pIC50": 6.74
  },
  {
    "molecule": "O=C(/C=C/CO)N1CC(c2nn(-c3ccc(OC(F)(F)F)cc3)c3nccc(N4CC(O)C4)c23)C1",
    "pIC50": 7.43
  },
  {
    "molecule": "C=CC(=O)NCc1nn(-c2ccc(OC(F)(F)F)cc2)c2nccc(O[C@H]3C[C@H](O)C3)c12",
    "pIC50": 6.44
  },
  {
    "molecule": "C=C(F)C(=O)N1CC(c2nn(-c3ccc(OC(F)(F)F)cc3)c3nccc(NC(=O)CO)c23)C1",
    "pIC50": 6.70
  },
  {
    "molecule": "C=CC(=O)NCc1nn(-c2ccc(OC(F)(F)F)cc2)c2nccc(-c3cnn(C)c3)c12",
    "pIC50": 6.89
  },
  {
    "molecule": "C=CC(=O)NCc1nn(-c2ccc(OC(F)(F)F)cc2)c2nccc(C(=O)NCCO)c12",
    "pIC50": 5.22
  },
  {
    "molecule": "C=CC(=O)NCc1nn(-c2ccc(OC(F)(F)F)cc2)c2cccc(CO)c12",
    "pIC50": 6.85
  },
  {
    "molecule": "C=CC(=O)NCc1nn(-c2ccc(OC(F)(F)F)cc2)c2nccc(N3CC(N(C)C)C3)c12",
    "pIC50": 6.02
  },
  {
    "molecule": "C=C(F)C(=O)N1CC(c2nn(-c3ccc(OC(F)(F)F)cc3)c3nccc(-c4cnn(CC(N)=O)c4)c23)C1",
    "pIC50": 7.21
  },
  {
    "molecule": "C=CC(=O)NCc1nn(-c2ccc(OC(F)(F)F)cc2)c2nccc(-c3cnn(CCN(C)C)c3)c12",
    "pIC50": 6.09
  },
  {
    "molecule": "C=CC(=O)NCc1nn(-c2ccc(OC(F)(F)F)cc2)c2nccc(N[C@H]3C[C@@H](O)C3)c12",
    "pIC50": 7.19
  },
  {
    "molecule": "C=CC(=O)NCc1nn(-c2ccc(OC(F)(F)F)cc2)c2nccc(N3CC(NC)C3)c12",
    "pIC50": 5.70
  },
  {
    "molecule": "C=C(F)C(=O)N1CC(c2nn(-c3ccc(OC(F)(F)F)cc3)c3nccc(-c4cnn(C5COC5)c4)c23)C1",
    "pIC50": 6.38
  },
  {
    "molecule": "C=CC(=O)NCc1nn(-c2ccc(OC(F)(F)F)cc2)c2nccc(CN3CC(O)C3)c12",
    "pIC50": 6.14
  }
]

---

pIC50: −log10 of the molar value.
// each record: one item and its pIC50 for TEAD2 (Homo sapiens (Human))

[
  {
    "compound": "O=C(NCc1nn(-c2ccc(OC(F)(F)F)cc2)c2nccc(CO)c12)C1=CCC1 [Compound 148]",
    "pIC50": 7.05
  },
  {
    "compound": "C/C=C/S(=O)(=O)N1CC(c2nn(-c3ccc(OC(F)(F)F)cc3)c3nccc([C@H](O)CO)c23)C1 [Compound 161]",
    "pIC50": 8.47
  },
  {
    "compound": "C=C(F)C(=O)N1CC(c2nn(-c3ccc(OC(F)(F)F)cc3)c3nccc(N4CC(CO)(CO)C4)c23)C1 [Compound 142]",
    "pIC50": 6.48
  },
  {
    "compound": "C=CC(=O)N(C)Cc1nn(-c2ccc(OC(F)(F)F)cc2)c2nccc(CO)c12 [Compound 55]",
    "pIC50": 6.92
  },
  {
    "compound": "C=CC(=O)NCc1nn(-c2ccc(OC(F)(F)F)cc2)c2nccc(C(C)(C)O)c12 [Compound 135]",
    "pIC50": 7.17
  },
  {
    "compound": "C=C(Cl)C(=O)N1CC(c2nn(-c3ccc(OC(F)(F)F)cc3)c3nccc([C@@H](O)CO)c23)C1 [Compound 110]",
    "pIC50": 8.10
  },
  {
    "compound": "C=C(F)C(=O)N1CC(c2nn(-c3ccc(OC(F)(F)F)cc3)c3nccc(-c4cnn(CCO)c4)c23)C1 [Compound 28]",
    "pIC50": 6.66
  },
  {
    "compound": "C/C=C/C(=O)N1CC(c2nn(-c3ccc(OC(F)(F)F)cc3)c3nccc(CO)c23)C1 [Compound 120]",
    "pIC50": 6.80
  },
  {
    "compound": "C=C(F)C(=O)N1CC(c2nn(-c3ccc(OC(F)(F)F)cc3)c3nccc(-c4cnn(CC(=O)N(C)C)c4)c23)C1 [Compound 180]",
    "pIC50": 6.80
  },
  {
    "compound": "C[C@@H](O)/C=C/C(=O)N1CC(c2nn(-c3ccc(OC(F)(F)F)cc3)c3nccc(CO)c23)C1 [Compound 66]",
    "pIC50": 6.74
  },
  {
    "compound": "C=C(F)C(=O)N1CC(c2nn(-c3ccc(OC(F)(F)F)cc3)c3nccc(-c4cnn(CCN(C)C)c4)c23)C1 [Compound 45]",
    "pIC50": 5.82
  },
  {
    "compound": "C=CC(=O)NCc1nn(-c2ccc(OC(F)(F)F)cc2)c2nccc([C@H]3C[C@H](O)C3)c12 [Compound 56]",
    "pIC50": 7.07
  },
  {
    "compound": "C=CC(=O)NCc1nn(-c2ccc(OC(F)(F)F)cc2)c2nccc([C@H](O)COC(C)=O)c12 [Compound 146]",
    "pIC50": 7.18
  },
  {
    "compound": "C=C(F)C(=O)N1CC(c2nn(-c3ccc(OC(F)(F)F)cc3)c3nccc(N4CC([C@H](O)CO)C4)c23)C1 [Compound 141]",
    "pIC50": 7.27
  },
  {
    "compound": "O=C(/C=C/CF)N1CC(c2nn(-c3ccc(OC(F)(F)F)cc3)c3ccnc(N4CC(O)C4)c23)C1 [Compound 137]",
    "pIC50": 6.44
  }
]

Cited source for all entries: patent US12110276B2
